test_target: T1, human programmed cell death protein 1 (hPD-1) C93S (aa 24-167) (Homo sapiens, UniProt Q15116, C93S)
T1 construct: made as a fusion with a TEV site and human Fc; the Fc was cut off with TEV protease; source: Expi293F, purified (Protein A, TEV cleavage of Fc, SEC; monomer fractions); not shown: Fc (human), C-terminal, cleaved
T1 sequence (Q15116 24-167 C93S): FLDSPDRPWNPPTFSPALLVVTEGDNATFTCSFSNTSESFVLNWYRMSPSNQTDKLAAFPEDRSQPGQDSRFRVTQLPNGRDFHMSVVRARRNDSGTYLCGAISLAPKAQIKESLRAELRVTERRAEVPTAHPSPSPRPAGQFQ
test_summary: SPR; Carterra LSA; Fab from the ammonium sulfate precipitate of the culture supernatant immobilised on a NiHC200M chip; hPD-1 (1-1024 nM) or mPD-1-Fc (4-1024 nM) as analyte, fourfold dilution series, no regeneration; HBS-EP pH 7.4, 25 °C; medians over the spots of a construct, KD = koff/kon
condition_notes: one partner purified
Measured Kd by item
Form entry: value (nM) — number only.

{"columns": ["binder", "uom", "Kd"],
 "data": [
  ["toripalimab Fab H.Y111A (Fab, V domains shown, heavy chain of Sm3 with this change; numbers count from the chain's first residue; as the light chain of Sm3; source: Brevibacillus, culture supernatant (ammonium sulfate precipitate); not shown: 6xHis, C-terminal, kept; 6xHN, C-terminal, kept) VH: QGQLVQSGAEVKKPGASVKVSCKASGYTFTDYEMHWVRQAPIHGLEWIGVIESETGGTAYNQKFKGRVTITADKSTSTAYMELSSLRSEDTAVYYCAREGITTVATTYYWAFDVWGQGTTVTVSS VL: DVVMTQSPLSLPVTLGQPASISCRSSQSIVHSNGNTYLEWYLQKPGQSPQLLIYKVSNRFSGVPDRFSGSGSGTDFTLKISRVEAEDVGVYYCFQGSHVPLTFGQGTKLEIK", "nM", 1610]
]}

Note: attention shifts to another entry.
## Task Any idea what Kd was measured for toripalimab Fab H.M34A (Fab, V domains shown, heavy chain of Sm3 with this change; numbers count from the chain's first residue; as the light chain of Sm3; source: Brevibacillus, culture supernatant (ammonium sulfate precipitate); not shown: 6xHis, C-terminal, kept; 6xHN, C-terminal, kept) VH: QGQLVQSGAEVKKPGASVKVSCKASGYTFTDYEAHWVRQAPIHGLEWIGVIESETGGTAYNQKFKGRVTITADKSTSTAYMELSSLRSEDTAVYYCAREGITTVATTYYWYFDVWGQGTTVTVSS VL: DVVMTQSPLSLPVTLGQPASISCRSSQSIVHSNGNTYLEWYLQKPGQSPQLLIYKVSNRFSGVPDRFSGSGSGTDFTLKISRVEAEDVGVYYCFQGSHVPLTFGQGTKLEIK ?
## Result 0.968

Hello, the source for this data is paper PMC10663500, in case you need it.
